measurement_protocol: MCF7 Cancer Cell Toxicity qHTS against the NCATS CANVASS Library (AID 1347369)
assay_conditions: MCF7 viability, ATP luminescence (CellTiter-Glo), 72 h; series mostly up to 46 µM
Inconclusive results are not listed. Active and inactive are the calls of the source. Calls come from the whole dose curve; as a rule, active = well fitted cell-killing curve with a large enough effect; inconclusive = small, poorly fitted or top-dose-only effect; inactive = no such curve, though single readings can be large or run the other way. Starred links: 1 amine or outer side, 2 acyl side, 3 side chain; linkers in the order of their positions; H or OH if unused. Positions of bridges follow the written chain, without caps; N, C: chain ends. Non-standard residues stand in square brackets, D forms with d. Residues, ends and D or L forms follow the SMILES beside them. ξ: configuration not given here. *: point of attachment. X3 = C[C@@H](Oc1ccc([C@H](N[*:1])C(=O)[*:2])cc1)[C@]1(/C=C\C(=O)[*:3])CO1; d(aIle) = CC[C@H](C)[C@@H](N)C(=O)O; X2 = CC(C)[C@@H](O)C(C)C(=O)*; ξNMeF = CNC(Cc1ccccc1)C(=O)O; ξT = CC(O)C(N)C(=O)O; ξS = NC(CO)C(=O)O
Give one outcome, nothing more. List: y (active), n (inactive)

Below, 5 compounds whose answers are already recorded.
compound | category
CC[C@H]1CN2CCc3c([nH]c4cccc(OC)c34)[C@@H]2C[C@@H]1/C(=C\OC)C(=O)OC | n
CO[C@@H](/C=C/CC/C=C/C(=O)O)[C@@H](O)[C@H](C)/C=C(\C)[C@H](O)[C@H](C)C(=O)CCCC1CC(=O)NC(=O)C1 | n
CC[C@@H]1CN2CCC3(Nc4cccc(OC)c4C3=O)[C@@H]2C[C@@H]1/C(=C\OC)C(=O)OC (stereo partly drawn) | n
CCCC[C@@H]1CC[C@H]2CCCC(CCCO)N12 (stereo partly drawn) | n
CCCCC1CC[C@H]2CCCC(CCC)N12 (stereo partly drawn) | n

Hey, what did the test say about CO[C@H]([C@@H](C)[C@H]1O[C@]1(C)C[C@H](C)/C=C/C=C(\C)[C@H]1O[C@@H](CC(=O)O)CC[C@@H]1C)[C@@H](C)O ? y

Hey, what did the test say about CO[C@H]1C[C@H](O[C@H]2[C@@H](O)C[C@H](O[C@H]3CC[C@]4(C=O)[C@H]5CC[C@]6(C)C(C7=CC(=O)OC7)CC[C@]6(O)[C@@H]5CC[C@]4(O)C3)O[C@@H]2C)O[C@H](C)[C@H]1O[C@H]1C[C@@H](OC)[C@@H](O[C@@H]2O[C@H](CO)[C@@H](O)[C@H](O)[C@H]2O)[C@@H](C)O1 (stereo partly drawn) ? y

Hey, what did the test say about C[C@]12CCC3[C@@H](CC[C@@H]4C[C@@H](O)CC[C@]34CO)[C@@]1(O)CC[C@@H]2C1=CC(=O)OC1 (stereo partly drawn) ? y

Hey, what did the test say about CC[C@H](C)[C@H]1NC(=O)[C@@H](NC(=O)C(C)[C@H](O)C(C)C)[C@@H](C)OC(=O)C2COC(=O)CNC(=O)/C=C\[C@]3(CO3)[C@@H](C)Oc3ccc(cc3)[C@H](NC1=O)C(=O)N(C)C(Cc1ccccc1)C(=O)NC(C(C)O)C(=O)N2 (stereo partly drawn) (X2-T[d(aIle)][X3][ξNMeF][ξT][ξS]; ester 1-C; linker 3-6 via G) ? n

Hey, what did the test say about CCCC[C@@H](C)/C=C1/CN2CCC[C@H]2[C@@](C)(O)[C@@H]1O ? n

Hey, what did the test say about C[C@]12CC(O)C3[C@@H](CC[C@@H]4C[C@@H](O)CC[C@]34CO)[C@@]1(O)CC[C@@H]2C1=CC(=O)OC1 (stereo partly drawn) ? y

Hey, what did the test say about C/C=C/[C@@H]1[C@H]2C[C@@H](C)CC[C@@H]2C(C)=C[C@H]1C(=O)c1c(O)c(-c2ccc(O)cc2)c[nH]c1=O ? n

Hey, what did the test say about CC[C@]12C=CCN3CC[C@]4(C(=C(C(=O)OC)C1)Nc1ccccc14)[C@@H]32 ? n

Hey, what did the test say about CO[C@@]12c3c(C)cc(O)c4c(=O)occ(c34)C(=O)[C@@H]1[C@]13COC(=O)c4c(O)cc(C)c(c41)C(=O)[C@H]2[C@@H]3OC(C)=O ? n

Hey, what did the test say about c1ccc2nc3c(cc2c1)[nH]c1ccccc13 ? n

Hey, what did the test say about CCC(=O)N[C@@H](C[C@H](C)C(Cl)(Cl)Cl)C(=O)N1C(=O)C=C(OC)[C@@H]1C[C@H](C)C(Cl)Cl ? n

Hey, what did the test say about C=CC(C)(C)[C@@]12C[C@H]3C(=O)N/C(=C/c4cnc[nH]4)C(=O)N3[C@@H]1Nc1ccccc12 ? n

Hey, what did the test say about C=C[C@H]1CN2CCc3c([nH]c4cccc(OC)c34)[C@@H]2C[C@@H]1/C(=C\OC)C(=O)OC ? n

----------
tested_system: Cytochrome P450 1A2 (Homo sapiens)
measurement_protocol: p450-cyp1a2 (AID 410); note: potency is the fitted concentration of half-maximal effect
assay_conditions: recombinant CYP1A2, luciferin-ME demethylation, luminescence; series mostly up to 25.6 µM
Inconclusive results are not listed. Active and inactive are the calls of the source. Calls come from the whole dose curve.
property_label: Potency

compound | Potency
CN1CC[C@@]2(CCCN(C(=O)c3csnn3)C2)C1 | inactive
CC1=C2[C@@H]3OC(=O)[C@@H](C)[C@@H]3CC[C@]2(C)C=CC1=O | 10 µM (active)
CNC[C@H](O)c1ccc(O)cc1 | inactive
CC[N@+]1(C)CCC[C@@H](OC(=O)C(O)(c2ccccc2)c2ccccc2)C1 | inactive
CO[C@@H](C)[C@](O)(C(=O)OCC1=CCN2CC[C@@H](O)[C@H]12)C(C)C | inactive
C[C@@]12CC(=O)[C@H]3[C@@H](CCC4=CC(=O)CC[C@]43C)[C@H]1CCC2=O | inactive
COc1ccc2c(c1O)-c1c(OC)c(OC)cc3c1[C@H](C2)N(C)CC3 | 10 µM (active)
O=C(Oc1ccccc1)N1CCC2(CC1)CN(Cc1ccncc1)C2 | 10 µM (active)

Entry under test: COc1ccccc1CN1CC[C@@]2(CCCN(C(=O)Oc3ccccc3)C2)C1 . Its Potency was 10 µM (active)

Entry under test: CC(C)C[C@H]1C(=O)N2CCC[C@@H]2[C@@]2(O)O[C@](NC(=O)[C@@H]3C=C4c5cccc6[nH]cc(c56)C[C@@H]4N(C)C3)(C(C)C)C(=O)N12 . Its Potency was 12.6 µM (active)

Entry under test: O=C(c1ccncc1)N1CCC2(CC1)CN(Cc1ccccc1)C2 . Its Potency was inactive

Entry under test: c1ccc(CN2CC[C@@]3(CCCNC3)C2)cc1 . Its Potency was inactive

Entry under test: N#Cc1ccc(CN2CCCC3(CCN(C(=O)Oc4ccccc4)CC3)C2)cc1 . Its Potency was inactive

Entry under test: C/C=C1\C[N@@+]2(C)CC[C@@]34C(=C(C=O)[C@H]1C[C@H]32)Nc1ccccc14 . Its Potency was inactive

Entry under test: COc1cc2c3cc1Oc1cc(ccc1O)C[C@@H]1c4c(cc(OC)c(O)c4Oc4cccc(c4)C[C@H]3N(C)CC2)CC[N+]1(C)C . Its Potency was inactive

----------
tested_system: Cytochrome P450 2C9 (Homo sapiens)
measurement_protocol: qHTS for inhibitors of CYP2C9 against the NCATS DSHEA and TCM libraries (AID 1919973)
assay_conditions: recombinant CYP2C9 enzyme activity, luminescence; series mostly up to 34.1 µM
Inconclusive results are not listed. Active and inactive are the calls of the source. Calls come from the whole dose curve; as a rule, active = well fitted inhibition curve with a large enough effect; inconclusive = small, poorly fitted or top-dose-only effect; inactive = no such curve, though single readings can be large or run the other way.
Give one outcome, nothing more. List: t for active, f for inactive

molecule | tested_system | category
C=C[C@H]1CN2CCc3c([nH]c4ccccc34)[C@H]2C[C@@H]1/C(=C\OC)C(=O)OC | Cytochrome P450 2C9 (Homo sapiens) | t
C=CCc1ccc2c(c1)OCO2 | Cytochrome P450 2C9 (Homo sapiens) | f

Hey, what did the test say about COc1ccc2c(c1O)-c1c(OC)c(OC)cc3c1[C@H](C2)N(C)CC3 ? f

Hey, what did the test say about COC1=C[C@@]23CCN(C)[C@H](Cc4ccc(OC)c(O)c42)C3=CC1=O ? f

Hey, what did the test say about C=C[C@H]1CN2CC[C@@]3(C(=O)Nc4ccccc43)[C@@H]2C[C@@H]1/C(=C\OC)C(=O)OC ? f

Hey, what did the test say about COc1cc2c(cc1O)CC1c3c(cc(O)c(OC)c3-2)CCN1C (stereo unspecified) ? t

----------
measurement_protocol: qHTS for differential inhibitors of proliferation of Plasmodium falciparum line W2 (AID 1883);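 note: potency is the fitted concentration of half-maximal effect; parasites grown with compound for 72 h before lysis and staining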
assay_conditions: Plasmodium falciparum W2 proliferation inhibition; series mostly up to 28.7 µM
Inconclusive results are not listed. Calls of active or inactive are those of the source. Calls come from the whole dose curve; as a rule, active = well fitted curve in the direction sought with a large enough effect; inconclusive = small, poorly fitted or top-dose-only effect, or another doubt; inactive = no such curve, though single readings can be large or run the other way.
Below: a set of entries, each annotated with reported Potency.

compound | result
CN1C[C@H](C(=O)N[C@]2(C)O[C@@]3(O)C4CCCN4C(=O)[C@H](Cc4ccccc4)N3C2=O)C[C@@H]2c3cccc4[nH]cc(c34)C[C@H]21 (stereo partly drawn) | 1410 nM (active)

Entry under test: C/C=C(/C)C(=O)O[C@H]1C(C)=C2C([C@@H]1OC(=O)CCCCCCC)[C@@](C)(OC(C)=O)C[C@@H](OC(=O)CCC)[C@@]1(O)[C@H]2OC(=O)[C@@]1(C)O (stereo partly drawn) . Its Potency was 3550 nM (active)

Entry under test: O=C(OC1CCN(CCCl)CC1)C(c1ccccc1)c1ccccc1 . Its Potency was 2240 nM (active)
